Catalogue of compounds with associated MIC
Test system: Staphylococcus aureus
Experiment: MIC against clinical isolates
Assay type: cell-based
Conditions: clinical isolate F-2; unit assumed
Answer format: numeric, µg/mL implied, no suffix.

CCN1CCN(C(=O)NC(C(=O)NC2C(=O)N3C(C(=O)O)=C(COC(C)=O)CSC23)c2ccccc2)C(=O)C1=O (stereo not drawn)
1.56

Fill in the recorded MIC for this compound, with Staphylococcus aureus as test system: CC1(C)S[C@@H]2[C@H](NC(=O)C(c3ccccc3)S(=O)(=O)O)C(=O)N2[C@H]1C(=O)O (stereo partly drawn) [Sodium Sulbenicillin, SodiumSulbenicillin, reference compound]
3.13

Fill in the recorded MIC for this compound, with Staphylococcus aureus as test system: CC(C)N1CCN(C(=O)N[C@@H](C(=O)N[C@@H]2C(=O)N3[C@@H]2SC(C)(C)[C@@H]3C(=O)O)c2ccccc2)C(=O)C1=O (single isomer, unassigned)
3.13
